# measurementNotes: soluble on expression in E. coli; label from the status in PepcDB or PDB records

# constructSequence, soluble on expression in E. coli
data = [
    ("MSGHFNYIVVGRGMMGAAAARHLAETVDGVALIGPGEPADIKSHQGVFASHYDEARITRTIDGDPDWALLANRSIARYADIAARSGVEFYAPVGCLMVGPERGGANPFVDDVLRAAARLGVSTELLGDQSLKSRFPYFSFEPGCEGVFERDNAGYVNPRALVKAQAILAEKAGVTLIDDIVVSTREEDGRASVQTASGAVYTAERVLVAAGGFSITRDLLPQPVGLDVYARTVAFFEIDEGDLGQYAGMPSLIYEPHDTTKHIYLLPPVRYPDGKFYLKIGGDPDDKRVGSDPEIREWFRSGGRESVRDHLSEIVGTLVPSVDHSRVSMAACVVSKTKSGYPAIGFTASPRIAVLTGGNGTAAKSSDEIGRLGAALLRDGKIADDAFSTDFKPEFL", "not soluble"),
    ("MGSDKIHHHHHHMMELRYNPLTDEWVIVSAATQKRPVQPSKTECPICVGGLELPEEYDLVTFENRYPSLKKDPPPVNWKEKGPFRKEESRGVCEVVVYTSDHNTALPGMPLKQIEKLVEMWVDRTRDLSQHDFVKYIFIFENRGKEVGASLPHPHGQIYAFPFLPKRIEVKIGAMRKWYEEKRKCPICEVLESEGEERKVYETEHFLALVPFYARFPYEVHIYPKRHVSTLLEFSKEEKKEFAKVLKVVTAKYDKLFDQEFPYMMMFFQAPFNEEDVSHFFHFHVEFNPPKRDRDKLKWMASVETGTWAFINPVVPEEAARQLRETEVEI", "not soluble"),
]
